Hello, the source for this data is patent US20060247223A1, in case you need it.

target_desc: H3 receptor (Mus musculus, UniProt P58406)
Construct: estimated in vivo by the measurement of the tele-methylhistamine level variations in the brain of mice; from tissue; host or cells: mouse brain, in vivo after p.o. administration
Sequence (P58406 whole entry): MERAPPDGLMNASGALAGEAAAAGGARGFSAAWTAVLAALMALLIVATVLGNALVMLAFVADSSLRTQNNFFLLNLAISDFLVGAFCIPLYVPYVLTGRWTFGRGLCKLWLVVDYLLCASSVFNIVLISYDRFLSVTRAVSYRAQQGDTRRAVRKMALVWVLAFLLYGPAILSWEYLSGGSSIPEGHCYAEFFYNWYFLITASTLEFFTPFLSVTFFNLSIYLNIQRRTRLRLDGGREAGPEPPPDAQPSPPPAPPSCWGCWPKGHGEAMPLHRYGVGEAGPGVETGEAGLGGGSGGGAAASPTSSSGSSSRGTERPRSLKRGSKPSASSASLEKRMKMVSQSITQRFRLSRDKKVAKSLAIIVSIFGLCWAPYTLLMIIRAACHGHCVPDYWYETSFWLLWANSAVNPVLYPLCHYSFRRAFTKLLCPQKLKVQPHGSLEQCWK
protocol_description: tele-methylhistamine level variations in the brain of mice after p.o. administration
Type: in vivo
test_conditions: tele-methylhistamine level in brain, dose for half maximal effect
Mark Condition met only for ED50 (mg/kg/p.o.) values smaller than 0.5 mg/kg/p.o.; exact matches and larger values are Condition not met.

Given the entry CC(=O)c1ccc(OCCCN2CCCC(C)C2)cc1 (stereo not drawn) [Example 66] , would its reported ED50 (mg/kg/p.o.) be below 0.5 mg/kg/p.o.?
Condition met

Please indicate whether the reported ED50 (mg/kg/p.o.) of CCN(CC)CCCOc1ccc(C(C)O)cc1 (stereo not drawn) [Example 63] is strictly below 0.5 mg/kg/p.o..
Condition met

Please indicate whether the reported ED50 (mg/kg/p.o.) of CCC(=O)c1ccc(OCCCN2CCCCC2)cc1 [Example 69] is strictly below 0.5 mg/kg/p.o..
Condition not met

Identify whether the compound CC(O)c1ccc(OCCCCCN2CCCC2)cc1 (stereo not drawn) [Example 50] records ED50 (mg/kg/p.o.) below 0.5 mg/kg/p.o..
Condition not met

Strictly below 0.5 mg/kg/p.o. in ED50 (mg/kg/p.o.)? O=[N+]([O-])c1ccc(OCCCCCN2CCCC2)cc1 [Example 18]
Condition not met

Identify whether the compound N#Cc1ccc(OCCCN2CCCCC2)cc1 [Example 59, 1-[3-(4-cyanophenoxy)propyl]piperidine] records ED50 (mg/kg/p.o.) below 0.5 mg/kg/p.o..
Condition met

Please state whether ED50 (mg/kg/p.o.) is below 0.5 mg/kg/p.o. for CCN(CC)CCCCOc1ccc(C#N)cc1 [Example 56]
Condition not met

Does this compound meet the criterion ED50 (mg/kg/p.o.) < 0.5 mg/kg/p.o.? CCN(CC)CCCOc1ccc(/C(C)=N/O)cc1 [Example 64]
Condition not met

Does the reported ED50 (mg/kg/p.o.) of N#Cc1ccc(OCCCN2CCCCCC2)cc1 [Example 60] stay below 0.5 mg/kg/p.o.?
Condition not met

Determine if CCN(CC)CCCOc1ccc(C(C)=O)cc1 [Example 46] shows ED50 (mg/kg/p.o.) strictly lower than 0.5 mg/kg/p.o..
Condition met
